Could you please report measured IR binding in percent of human insulin for the items listed next?
# TARGET_ENTITY: human insulin receptor (IR) (Homo sapiens, UniProt P06213)
# Sequence (P06213 28-746 isoform P06213-2 limits assumed): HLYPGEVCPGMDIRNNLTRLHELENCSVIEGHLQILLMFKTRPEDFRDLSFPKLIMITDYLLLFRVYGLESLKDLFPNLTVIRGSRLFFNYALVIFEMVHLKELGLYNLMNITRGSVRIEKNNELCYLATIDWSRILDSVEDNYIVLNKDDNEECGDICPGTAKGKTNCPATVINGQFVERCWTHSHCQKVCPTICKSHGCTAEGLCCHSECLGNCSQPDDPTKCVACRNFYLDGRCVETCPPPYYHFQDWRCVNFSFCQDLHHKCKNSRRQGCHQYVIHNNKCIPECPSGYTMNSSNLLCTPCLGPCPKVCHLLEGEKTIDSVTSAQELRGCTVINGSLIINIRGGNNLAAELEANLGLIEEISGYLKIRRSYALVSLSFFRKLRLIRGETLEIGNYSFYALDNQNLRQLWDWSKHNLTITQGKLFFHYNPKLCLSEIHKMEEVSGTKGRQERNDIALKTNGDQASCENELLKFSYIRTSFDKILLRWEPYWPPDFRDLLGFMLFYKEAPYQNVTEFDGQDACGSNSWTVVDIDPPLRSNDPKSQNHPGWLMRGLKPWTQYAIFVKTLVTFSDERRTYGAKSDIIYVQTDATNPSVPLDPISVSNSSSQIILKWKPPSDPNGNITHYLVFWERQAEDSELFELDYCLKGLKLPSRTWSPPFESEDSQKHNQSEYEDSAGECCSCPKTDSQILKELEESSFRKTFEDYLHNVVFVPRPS
# Sequence (P06213 763-1382 partner limits assumed): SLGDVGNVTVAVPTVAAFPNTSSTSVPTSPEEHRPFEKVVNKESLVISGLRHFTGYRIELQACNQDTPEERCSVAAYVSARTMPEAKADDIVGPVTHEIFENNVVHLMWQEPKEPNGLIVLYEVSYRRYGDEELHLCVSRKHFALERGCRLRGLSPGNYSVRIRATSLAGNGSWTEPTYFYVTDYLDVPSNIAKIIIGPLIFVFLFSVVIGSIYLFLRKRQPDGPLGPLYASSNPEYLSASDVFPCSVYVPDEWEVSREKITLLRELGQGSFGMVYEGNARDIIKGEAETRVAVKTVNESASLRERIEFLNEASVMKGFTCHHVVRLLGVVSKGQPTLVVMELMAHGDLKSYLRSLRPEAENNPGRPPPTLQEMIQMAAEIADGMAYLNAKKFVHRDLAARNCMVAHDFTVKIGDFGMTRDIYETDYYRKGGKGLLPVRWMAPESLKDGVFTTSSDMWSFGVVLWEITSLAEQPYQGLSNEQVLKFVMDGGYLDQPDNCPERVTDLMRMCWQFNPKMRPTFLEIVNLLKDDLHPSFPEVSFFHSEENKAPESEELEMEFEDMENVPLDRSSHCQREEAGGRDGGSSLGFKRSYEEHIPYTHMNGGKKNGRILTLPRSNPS
# TEST_DETAILS: Binding affinity to the human insulin receptor relative to human insulin (SPA antibody capture assay)
# SETTINGS: binding affinity to the human insulin receptor relative to that of human insulin
Answer with a number only, understood to be in %.

B(1-29)-B22K(N^ε-3-(mPEG2000-yl)propionyl)-B29A-A18Q-VGLSSGQ-A(1-21) Human Insulin [Example 2] has a reported IR binding in percent of human insulin of 19.7

B(1-29)-B29A-VGLSSGQ-A(1-22)-A18Q-A22K(N^ε-3-(mPEG2000-yl)propionyl) Human Insulin [Example 6] has a reported IR binding in percent of human insulin of 12

B(1-29)-B1(N^α-3-(mPEG2000-yl)propionyl)-B29A-VGLSSGQ-A(1-21)-A18Q Human Insulin [Example 8] has a reported IR binding in percent of human insulin of 8.1
